System: STZ-induced diabetic rats
Assay: Effect on FBG, body weight and HbA1C over 6 weeks
Assay type: in vivo, Sprague Dawley rats
Details: Day 0, baseline
Experimental: Diabetes will be induced in rats (n = 6 per group) by a single intraperitoneal injection of 60-100 mg/kg body weight (BW) streptozotocin dissolved in normal saline. […] Diabetic Rats (n = 6 per group) will be randomly assigned to groups of six animals each in order to examine the impact of synthetic derivatives on FBG level, BW, and HbA1C. […] At the beginning of the experiment and at weekly intervals during the first 42 days of therapy, the FBG level and BW will be measured. […]
FBG (Day 0) by entry:
Express it in mg/dL; write the number only.

Worked examples, 3 molecules total:
Query: Identify the reported FBG (Day 0) for the following entry. CN(C)C(=N)N=C(N)N [Metformin, reference compound]
Reply: 282.3

Query: Identify the reported FBG (Day 0) for the following entry. `CC(=O)c1cccc(S(=O)(=O)N2CC(=O)NC2=S)c1`
Reply: 279.1

Query: Identify the reported FBG (Day 0) for the following entry. `CC(=O)Nc1ccc(S(=O)(=O)N2CC(=O)NC2=S)cc1`
Reply: 282.8

Further cases:
Query: Identify the reported FBG (Day 0) for the following entry. `Cc1ccc(S(=O)(=O)N2CC(=O)NC2=S)cc1C(=O)O`
Reply: 281.0

Query: Identify the reported FBG (Day 0) for the following entry. `O=C1CN(S(=O)(=O)c2cccc(C(=O)O)c2)C(=S)N1`
Reply: 280.5
